# METHOD: protein stability index of a GFP-peptide fusion (yeast GPS) (PSI 1-4); higher = more stable; sorted into four equal gates, so the index is relative within each strain
# EXPERIMENTAL PARAMETERS: doa10∆
RESULT TYPE: protein stability index

Incoming: Return reported protein stability index; argument: RKDENQFSYVDSSMTTV [AAR2]
Outgoing: 2.98

Incoming: Would you mind doing TSTEKLYKLNDKIAVAV [PRE9] as well?
Outgoing: 2.84

Incoming: Try this sequence too: LQETLNKSTSSEAEYSK [YIL149C/MLP2]
Outgoing: 3.11

Incoming: Same question for IYQTLIALNLDTTVNDC [SNF2] please.
Outgoing: 2.19

Incoming: What about ITDKTIKAFMDSTIGNS [IRR1] ?
Outgoing: 2.54

Incoming: Please give the result for FDEKTIEEMLEIISGYA [RPC17] too.
Outgoing: 1.36

Incoming: // repeat for GEHISAIVPGQSISGTL [SWP82] and report
Outgoing: 3.41

Incoming: How about LFKKFNNDFKLSIDKVL [RET1] ?
Outgoing: 1.66

Incoming: How about this sequence: QWTGGRGGGHHSFEDAH [FAS1]
Outgoing: 3.21

Incoming: PAFSFGISNGSESKDSD [YLR335W/NUP2] ?
Outgoing: 3.23

Incoming: Thanks! And ALELDDTVVSRVNEMVQ [ECM29] ?
Outgoing: 3.16

Incoming: Request: ERHQAGKNQWFFSKLRF [RPL27A]
Outgoing: 3.19

Incoming: Would you mind doing ENLNRNWRGREHWKVRN [BRN1] as well?
Outgoing: 3.57

Incoming: Input LSNSNRFELHGDMTNSD [REC8]
Outgoing: 2.82

Incoming: Try the sequence IKDSVREVGTKFTTVLA [ECM29]
Outgoing: 2.77

Incoming: What would you report for VSTSSGAAANNNDQKRQ [YJL041W/NSP1] ?
Outgoing: 3.37

Incoming: Again, but for YKGMASNDERIVKRLYE [BRR2]
Outgoing: 3.33

Incoming: What would you report for DIFGDSELFDEWFEQNN [ISW2] ?
Outgoing: 2.36

Incoming: Again, but for IEFEYDPWNKLKHTDYW [RPB3]
Outgoing: 2.85

Incoming: What about this sequence? QWYTLQSQLNVTLSQLV [MED8]
Outgoing: 1.54

Incoming: Now the sequence DLESSSPELKADLRPLQ [RPS7B]
Outgoing: 2.89

Incoming: Try this sequence next: KLHVAAKLPGHKSLIRS [YGL100W/SEH1]
Outgoing: 1.83

Incoming: Entry AAGVERLIFYPDEYEQL [PRE3] please
Outgoing: 2.96

Incoming: Ok, now ILTKEVQGSTLAQLTSK [RPS1A]
Outgoing: 3.27

Incoming: Follow-up entry: AVVGNNMLLDPAANESE [RRP42]
Outgoing: 1.47

Incoming: For KPKNTKENLSKSSWRQE [SIR4] then?
Outgoing: 1.35

Incoming: Can you handle LKELRIDNSPQAISYLH [GRR1] next?
Outgoing: 2.17

Incoming: Subsequent entry: RSLLLSRVRADDLSTRF [RRP43]
Outgoing: 2.89

Incoming: Next sequence: KLISAFDDLEVEELPTF [RRP42]
Outgoing: 2.57

Incoming: Now the same for AVKKLYAIIINYTKDNE [YCS4]
Outgoing: 1.82

All values here come from the supplement of paper PMC9732359.
